- TESTED SYSTEM: recombinant CYP3A4-b5 enzyme (Baculosomes®) (Homo sapiens)
- Construct: purchased Invitrogen (Carlsbad, Calif.)
- Sequence (P08684 whole entry): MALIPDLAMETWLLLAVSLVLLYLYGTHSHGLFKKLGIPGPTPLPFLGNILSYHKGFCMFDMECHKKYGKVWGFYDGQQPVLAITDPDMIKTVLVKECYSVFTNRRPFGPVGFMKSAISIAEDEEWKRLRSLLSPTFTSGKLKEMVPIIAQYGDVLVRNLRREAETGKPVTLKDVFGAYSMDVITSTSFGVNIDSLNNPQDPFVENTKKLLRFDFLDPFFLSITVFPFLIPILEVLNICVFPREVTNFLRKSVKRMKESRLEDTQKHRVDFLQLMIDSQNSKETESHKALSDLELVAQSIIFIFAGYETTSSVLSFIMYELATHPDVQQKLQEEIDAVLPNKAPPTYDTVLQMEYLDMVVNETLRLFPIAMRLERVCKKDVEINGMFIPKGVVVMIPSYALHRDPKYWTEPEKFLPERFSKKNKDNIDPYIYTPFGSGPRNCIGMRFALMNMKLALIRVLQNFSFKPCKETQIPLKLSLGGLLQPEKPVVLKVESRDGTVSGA
- TEST METHOD NOTES: Kiapp against recombinant CYP3A4 enzyme (Baculosomes), BFC substrate
- Assay type: biochemical
- PROTOCOL CONDITIONS: recombinant CYP3A4-b5 (Invitrogen), 5 uM BFC, 200 uM NADPH, pre-incubation at least 30 minutes, pH 7.0, room temperature
ENDPOINT: Ki (µM)

Example entries begin here.
{"columns": ["COMPOUND", "EXPERIMENTAL VALUE"],
 "data": [
  ["O=C(Cn1nc(-c2ccncn2)cc1Cc1ccc(F)cc1)N1CCN(c2ccccn2)CC1 [Example 97]", 0.232],
  ["CNC(=O)N(C)C1CCN(C(=O)Cn2nc(-c3ccncc3)cc2Cc2ccc(F)cc2)C1 (stereo not shown) [Example 129]", 0.312],
  ["CCOC(=O)N(C)C1CCN(C(=O)Cn2nc(-c3ccncc3)cc2Cc2ccc(F)cc2)CC1 [Example 113]", 0.00676],
  ["CC(=O)NC1CN(C(=O)Cn2nc(-c3ccncc3)cc2Cc2ccc(F)cc2)C1 [Example 127]", 0.141],
  ["CS(=O)(=O)C1CCN(C(=O)Cn2nc(-c3ccncc3)cc2Cc2ccc(F)cc2)CC1 [Example 6]", 0.0237]
]}

A. O=C(Cn1nc(-c2ccncc2)cc1Cc1ccc(F)cc1)N1CC(N2CCOCC2)C1 [Example 121]
B. CN(C(=O)Cn1nc(-c2c[nH]cn2)cc1Cc1ccc(F)cc1)[C@H]1CC[C@H](O)CC1 [Example 123]
Hey, which is lower on measured Ki, A or B ? Refer to your chosen entry by its label in the reply.
A
(A: 0.0978 µM, B: 0.459 µM)

P. O=C(Cn1nc(-c2ccncc2)cc1Cc1ccc(F)cc1)N[C@H]1CC[C@@H](O)CC1 [Example 95]
Q. O=C(Cn1nc(-c2ccncc2)cc1Cc1ccc(F)cc1)N1CCN(c2ncccn2)CC1 [Example 56]
R. OCCn1nc(-c2ccncc2)cc1Cc1ccc(F)cc1 [Example 29]
Kindly order the items shown according to Ki, from the highest value down. Rank the items, then write their labels in that order.
R, P, Q
(R: 0.159 µM, P: 0.0871 µM, Q: 0.0303 µM)

A. CC(C)OC(=O)NC1CCN(C(=O)Cn2nc(-c3ccncc3)cc2Cc2ccc(F)cc2)CC1 [Example 116]
B. CC(C)NC(=O)Cn1nc(-c2ccncc2)cc1Cc1ccc(F)cc1 [Example 58]
C. C[C@@H](O)CNC(=O)Cn1nc(-c2ccncc2)cc1Cc1ccc(F)cc1 [Example 63]
D. N[C@@H]1CCN(C(=O)Cn2nc(-c3ccncc3)cc2Cc2ccc(F)cc2)C1 [Example 65]
Kindly order the items shown according to Ki, from the highest value down. Rank the items, then write their labels in that order.
D, C, B, A

1. COC(=O)Cn1nc(-c2ccncc2)cc1Cc1ccc(F)cc1 [Example 2]
2. CC(=O)NC(C)(C)CNC(=O)Cn1nc(-c2ccncc2)cc1Cc1ccc(F)cc1 [Example 71]
Hey, which is lower on measured Ki, 1 or 2 ? Refer to your chosen entry by its label in the reply.
2
